- Tested on: SW 1573
- Assay protocol: relative viability (nuclei count vs DMSO), 5 days (fraction); higher = more cells survive
- Run parameters: first compound 0.03162 µM
Parameter measured: relative viability
Please reply with the value in numeric form only.

Challenge: Which measured relative viability belongs to Cc1cn(-c2cc(NC(=O)c3ccc(C)c(Nc4nccc(-c5cccnc5)n4)c3)cc(C(F)(F)F)c2)cn1 [Nilotinib] + CC(=O)c1c(C)c2cnc(Nc3ccc(N4CCNCC4)cn3)nc2n(C2CCCC2)c1=O [Palbociclib] (partner 0.5 µM) , tested on SW 1573?
Response given: 0.271

Challenge: Another compound to look at: Cc1cn(-c2cc(NC(=O)c3ccc(C)c(Nc4nccc(-c5cccnc5)n4)c3)cc(C(F)(F)F)c2)cn1 [Nilotinib] + N=C(N)NC(=N)NCCc1ccccc1 [Phenformin] (partner 250 µM)
Response given: 0.179

Challenge: Another compound to look at: Cc1cn(-c2cc(NC(=O)c3ccc(C)c(Nc4nccc(-c5cccnc5)n4)c3)cc(C(F)(F)F)c2)cn1 [Nilotinib] + Nc1nc2[nH]cc(CCc3ccc(C(=O)N[C@@H](CCC(=O)O)C(=O)O)cc3)c2c(=O)[nH]1 [Pemetrexed] (partner 0.2 µM)
Response given: 0.541

Challenge: Another compound to look at: Cc1cn(-c2cc(NC(=O)c3ccc(C)c(Nc4nccc(-c5cccnc5)n4)c3)cc(C(F)(F)F)c2)cn1 [Nilotinib] + Cc1nc(NC(=O)N2CCC[C@H]2C(N)=O)sc1-c1ccnc(C(C)(C)C(F)(F)F)c1 [Alpelisib] (partner 2 µM)
Response given: 0.594

Challenge: Another compound to look at: Cc1cn(-c2cc(NC(=O)c3ccc(C)c(Nc4nccc(-c5cccnc5)n4)c3)cc(C(F)(F)F)c2)cn1 [Nilotinib] + CS(=O)(=O)CCNCc1ccc(-c2ccc3ncnc(Nc4ccc(OCc5cccc(F)c5)c(Cl)c4)c3c2)o1 [Lapatinib] (partner 2 µM)
Response given: 1.1

###

- Tested on: NCI-H2087
- Assay protocol: relative viability (nuclei count vs DMSO), 5 days (fraction); higher = more cells survive
- Run parameters: first compound 0.001 µM
Parameter measured: relative viability
Please reply with the value in numeric form only.

Worked examples, 2 compounds total:
Cc1cn(-c2cc(NC(=O)c3ccc(C)c(Nc4nccc(-c5cccnc5)n4)c3)cc(C(F)(F)F)c2)cn1 [Nilotinib] + CS(=O)(=O)N1CCN(Cc2cc3nc(-c4cccc5[nH]ncc45)nc(N4CCOCC4)c3s2)CC1 [Pictilisib] (partner 1 µM)
0.759
Cc1cn(-c2cc(NC(=O)c3ccc(C)c(Nc4nccc(-c5cccnc5)n4)c3)cc(C(F)(F)F)c2)cn1 [Nilotinib] + O=C(CCCCCCC(=O)Nc1ccccc1)NO [Vorinostat] (partner 1 µM)
0.707

Now for another entry.
Challenge: Can you share its relative viability? I mean this compound: Cc1cn(-c2cc(NC(=O)c3ccc(C)c(Nc4nccc(-c5cccnc5)n4)c3)cc(C(F)(F)F)c2)cn1 [Nilotinib] + CC(=O)c1c(C)c2cnc(Nc3ccc(N4CCNCC4)cn3)nc2n(C2CCCC2)c1=O [Palbociclib] (partner 0.5 µM)
Response given: 0.219

###

- Tested on: COR-L23
- Assay protocol: relative viability (nuclei count vs DMSO), 5 days (fraction); higher = more cells survive
- Run parameters: first compound 2.53 µM
Parameter measured: relative viability
Please reply with the value in numeric form only.

Worked examples, 2 molecules total:
Nc1cccc2c1CN(C1CCC(=O)NC1=O)C2=O (stereo not given) [Lenalidomide] + Nc1ncn([C@H]2C[C@H](O)[C@@H](CO)O2)c(=O)n1 [Decitabine] (partner 2 µM)
0.491
Nc1cccc2c1CN(C1CCC(=O)NC1=O)C2=O (stereo not given) [Lenalidomide] + C[C@]1(O)C[C@@H](c2nc(-c3ccc4ccc(-c5ccccc5)nc4c3)c3c(N)nccn32)C1 [Linsitinib] (partner 1 µM)
1.01

Challenge: Can you share its relative viability? I mean this molecule: Nc1cccc2c1CN(C1CCC(=O)NC1=O)C2=O (stereo not given) [Lenalidomide] + CC(=O)c1c(C)c2cnc(Nc3ccc(N4CCNCC4)cn3)nc2n(C2CCCC2)c1=O [Palbociclib] (partner 0.5 µM)
Response given: 0.308

Challenge: Another molecule to look at: Nc1cccc2c1CN(C1CCC(=O)NC1=O)C2=O (stereo not given) [Lenalidomide] + CC(=O)Nc1cccc(-n2c(=O)n(C3CC3)c(=O)c3c(Nc4ccc(I)cc4F)n(C)c(=O)c(C)c32)c1 [Trametinib] (partner 0.02 µM)
Response given: 0.678

Challenge: Another molecule to look at: Nc1cccc2c1CN(C1CCC(=O)NC1=O)C2=O (stereo not given) [Lenalidomide] + CCNC(=O)c1noc(-c2cc(C(C)C)c(O)cc2O)c1-c1ccc(CN2CCOCC2)cc1 [Luminespib] (partner 0.01 µM)
Response given: 0.735
